target: full-length beta-Catenin (Uniprot ID P35222) (Homo sapiens (Human)) (UniProt P35222); experiment: fluorescence polarization competition; full-length beta-catenin, competitor probe 5FAM-TCF4(10-53)
Starred links: 1 amine or outer side, 2 acyl side, 3 side chain; linkers in the order of their positions; H or OH if unused. Positions of bridges follow the written chain, without caps; N, C: chain ends. Non-standard residues stand in square brackets, D forms with d. Primed or numbered codes have the meaning given here. PyrS2″ = (S)-3-amino-1-((pent-4-en-1-yloxy)carbonyl)pyrrolidine-3-carboxylic acid (stapling residue), C=CCCCOC(=O)N1CC[C@@](N[*:1])(C(=O)[*:2])C1; B5(32) = 2-amino-2-(pent-4-en-1-yl)hept-6-enoic acid (bis-4-pentenylglycine, two alkene side chains), C=CCCCC(CCCC=C)(N[*:1])C(=O)[*:2]; B5(4) = 2,2-bis(4-pentenyl)glycine = 2-amino-2-(pent-4-en-1-yl)hept-6-enoic acid (stitching residue), C=CCCCC(CCCC=C)(N[*:1])C(=O)[*:2]; TfeGA = (S)-2-amino-3-((carboxymethyl)(2,2,2-trifluoroethyl)amino)propanoic acid, O=C([C@H](CN(CC(=O)[*:3])CC(F)(F)F)N[*:1])[*:2]; PyrS2 = (S)-3-amino-1-((pent-4-en-1-yloxy)carbonyl)pyrrolidine-3-carboxylic acid, C=CCCCOC(=O)N1CC[C@@](N[*:1])(C(=O)[*:2])C1; 3Br4FF = (S)-2-amino-3-(3-bromo-4-fluorophenyl)propanoic acid, O=C([C@H](Cc1ccc(F)c(Br)c1)N[*:1])[*:2]; B5(3) = 2,2-bis(4-pentenyl)glycine (stitching residue), C=CCCCC(CCCC=C)(N[*:1])C(=O)[*:2]; Phe(3-COOH) = N[C@@H](Cc1cccc(C(=O)O)c1)C(=O)O; Phe(2-CF3) = N[C@@H](Cc1ccccc1C(F)(F)F)C(=O)O; Phe(2-Cl) = N[C@@H](Cc1ccccc1Cl)C(=O)O; Bta = N[C@@H](Cc1csc2ccccc12)C(=O)O; αAllylPro = C=CC[C@@]1(C(=O)O)CCCN1; tBuAla = CC(C)(C)C[C@H](N)C(=O)O; 3Thi = N[C@@H](Cc1ccsc1)C(=O)O; hSer = N[C@@H](CCO)C(=O)O
Threshold 100 nM. IC50 below it: Met. IC50 at it or above: Not met.

binder: Ac-[αAllylPro]D[tBuAla][B5(4)]D[Phe(3-COOH)]AAFL[PyrS2][3Thi][Bta]NALALA-NH2 (staple 1-4, 4-11; also: later eluting staple isomer) [I-2282]
classification: Not met
//
binder: Ac-[αAllylPro]D[tBuAla][B5(32)]D[Phe(3-COOH)]AAFL[PyrS2][3Thi][Bta]NALL-NH2 (staple 1-4, 4-11; also: later eluting staple isomer) [I-2278]
classification: Not met

Q: Take the binder Ac-[αAllylPro]D[tBuAla][B5(4)]D[Phe(3-COOH)]QAFL[PyrS2][Phe(2-CF3)][3Br4FF]A-NH2 (staple 1-4, 4-11) [I-2290] and say whether its IC50 is less than 100 nM.
A: Met

Q: Take the binder Ac-[αAllylPro]D[tBuAla][B5(4)]D[Phe(3-COOH)]AAFS[PyrS2″][3Thi][Bta]Q-NH2 (staple 1-4, 4-11; also: earlier eluting HPLC staple isomer) [I-978] and say whether its IC50 is less than 100 nM.
A: Not met

Q: Take the binder Ac-[αAllylPro]D[tBuAla][B5(3)]D[TfeGA]AAFF[PyrS2″][Phe(2-Cl)][Bta][hSer]-NH2 (staple 1-4, 4-11) [I-992] and say whether its IC50 is less than 100 nM.
A: Met

Q: Take the binder Ac-[αAllylPro]D[tBuAla][B5(3)]D[TfeGA]AAFF[PyrS2″][Phe(2-Cl)][Bta]S-NH2 (staple 1-4, 4-11) [I-990] and say whether its IC50 is less than 100 nM.
A: Met

Q: Take the binder Ac-[αAllylPro]D[tBuAla][B5(3)]D[Phe(3-COOH)]AAFL[PyrS2″][3Thi][Bta]NAAAAAAA-NH2 (staple 1-4, 4-11) [I-2269] and say whether its IC50 is less than 100 nM.
A: Met

Q: Take the binder Ac-[αAllylPro]D[tBuAla][B5(3)]D[Phe(3-COOH)]AAFS[PyrS2″][3Thi][Bta]S-NH2 (staple 1-4, 4-11; also: later eluting HPLC isomer) [I-985] and say whether its IC50 is less than 100 nM.
A: Not met
